biological target: HCV-NS5BΔ21 RdRp genotype 1b (strain J4) (Hepatitis C virus genotype 1b, UniProt O92972); assay: biochemical; set-up: His6 (N); made in house; host or cells: Escherichia coli C41(DE3); conditions: 20 μM compound; no treatment control slope 62.0
Reported Slope of fluorescence increase values for the following compounds.
testReadout: Slope of fluorescence increase

{"columns": ["compound", "testReadout", "val"],
 "data": [
  ["O=c1c(O)c(-c2ccc(O)c(O)c2)oc2c(O)c(O)cc(O)c12 [Gossypetin]", "Slope of fluorescence increase", 15.8],
  ["O=c1cc(-c2ccccc2)oc2ccc(O)cc12 [6-Hydroxyflavone]", "Slope of fluorescence increase", 50.6],
  ["O=c1cc(-c2ccccc2)oc2cc(O)c(O)cc12 [6.7 Dihydroxyflavone]", "Slope of fluorescence increase", 38.8],
  ["O=c1cc(-c2ccccc2)oc2cccc(O)c12 [5-hydroxyflavone]", "Slope of fluorescence increase", 53.0],
  ["O=c1c(O[C@@H]2O[C@H](CO)[C@@H](O)[C@H](O)[C@H]2O)c(-c2ccc(O)c(O)c2)oc2cc(O)cc(O)c12 [Quercetin-3-O glucopyranoside]", "Slope of fluorescence increase", 46.0],
  ["O=c1c(O)c(-c2ccccc2O)oc2cc(O)cc(O)c12 [Datiscetin]", "Slope of fluorescence increase", 18.3],
  ["O=c1c(O)c(-c2ccc(O)c(O)c2)oc2cc(O)ccc12 [Fisetin]", "Slope of fluorescence increase", 21.2],
  ["Oc1cc(O)c2c(c1)O[C@H](c1ccc(O)c(O)c1)[C@@H](O)C2 (racemic) [DL-Catechin]", "Slope of fluorescence increase", 51.1],
  ["O=c1cc(-c2ccc(O)c(O)c2)oc2c(O)c(O)ccc12 [3’.4’.7.8-Tetrahydroxyflavone]", "Slope of fluorescence increase", 42.9],
  ["O=c1c(O)c(-c2ccc(O)cc2)oc2cc(O)cc(O)c12 [Kaempferol]", "Slope of fluorescence increase", 15.7],
  ["COc1cc(O)c2c(=O)c(OC)c(-c3ccc(OC)c(OC)c3)oc2c1 [Quercetin 3.7.3’.4’ tétramethylether]", "Slope of fluorescence increase", 53.0],
  ["O=c1c(O)c(-c2ccc(O)c(O)c2)oc2cc(O)c(O)c(O)c12 [Quercetagetin]", "Slope of fluorescence increase", 8.9],
  ["C[C@@H]1O[C@@H](OC[C@H]2O[C@@H](Oc3c(-c4ccc(O)c(O)c4)oc4cc(O)cc(O)c4c3=O)[C@H](O)[C@@H](O)[C@@H]2O)[C@H](O)[C@H](O)[C@H]1O [Rutin]", "Slope of fluorescence increase", 43.2],
  ["O=C1C[C@@H](c2ccc(O)cc2)Oc2cc(O)cc(O)c21 [Naringenin]", "Slope of fluorescence increase", 58.3],
  ["O=C1CC(c2ccc(O)cc2)Oc2ccccc21 (centres unmarked) [4’-Hydroxyflavanone]", "Slope of fluorescence increase", 56.3],
  ["O=c1c(O)c(-c2ccc(O)c(O)c2)oc2cc(O[C@@H]3O[C@H](CO)[C@@H](O)[C@H](O)[C@H]3O)c(O)c(O)c12 [Quercetagetin-7-O glucoside]", "Slope of fluorescence increase", 35.7],
  ["O=c1cc(-c2ccc(O)c(O)c2)oc2ccccc12 [3’.4’-Dihydroxyflavone]", "Slope of fluorescence increase", 33.9]
]}
